- target_or_test_system: Adenosine receptors; A1 & A2 (Rattus norvegicus) (UniProt P29276+P25099+P30543)
- experimental_protocol: Selectivity as ratio of Ki against A2 and A1 receptors
- Assay type: protein assay
Below, each entry is listed alongside its reported Ratio.

[
  {
    "compound": "CCCn1c(=O)c2nc([C@@H](CC)c3ccccc3)[nH]c2n(CCC)c1=O",
    "Ratio": 55
  },
  {
    "compound": "CCCn1c(=O)c2nc(CC(C)c3ccccc3)[nH]c2n(CCC)c1=O (centres undefined)",
    "Ratio": 18
  },
  {
    "compound": "CCCn1c(=O)c2nc([C@H](CC)c3ccccc3)[nH]c2n(CCC)c1=O",
    "Ratio": 153
  },
  {
    "compound": "CCCn1c(=O)c2nc(C(CC)c3ccccc3)[nH]c2n(CCC)c1=O (centres undefined)",
    "Ratio": 95
  }
]

* * *

- target_or_test_system: Adenosine A2 receptor (Rattus norvegicus, UniProt P29276+P30543)
- experimental_protocol: Binding affinity towards adenosine A2 receptor was determined using radioligand [3H]NECA in rat brain striatum at 25 degree C
- Type: tissue-based
Please assign a class to every record based on measured Ki, with ranges lo: < 3 µM; med: ≥ 3 µM and < 8 µM; hi: ≥ 8 µM

[
  {
    "compound": "CCCn1c(=O)c2nc([C@@H](CC)c3ccccc3)[nH]c2n(CCC)c1=O",
    "target_or_test_system": "Adenosine A2 receptor (Rattus norvegicus, UniProt P29276+P30543)",
    "assigned_class": "med"
  },
  {
    "compound": "CCCn1c(=O)c2nc([C@@H](C)c3ccccc3)[nH]c2n(CCC)c1=O",
    "target_or_test_system": "Adenosine A2 receptor (Rattus norvegicus, UniProt P29276+P30543)",
    "assigned_class": "hi"
  },
  {
    "compound": "CCCn1c(=O)c2nc(CC(C)c3ccccc3)[nH]c2n(CCC)c1=O (stereo not given)",
    "target_or_test_system": "Adenosine A2 receptor (Rattus norvegicus, UniProt P29276+P30543)",
    "assigned_class": "lo"
  },
  {
    "compound": "CCCn1c(=O)c2nc(C3CCc4ccccc4C3)[nH]c2n(CCC)c1=O (stereo not given)",
    "target_or_test_system": "Adenosine A2 receptor (Rattus norvegicus, UniProt P29276+P30543)",
    "assigned_class": "hi"
  },
  {
    "compound": "CCCn1c(=O)c2nc([C@H]3CCC[C@@H]3c3ccccc3)[nH]c2n(CCC)c1=O",
    "target_or_test_system": "Adenosine A2 receptor (Rattus norvegicus, UniProt P29276+P30543)",
    "assigned_class": "lo"
  },
  {
    "compound": "CCCn1c(=O)c2nc(C(C)c3ccccc3)[nH]c2n(CCC)c1=O (stereo not given)",
    "target_or_test_system": "Adenosine A2 receptor (Rattus norvegicus, UniProt P29276+P30543)",
    "assigned_class": "med"
  },
  {
    "compound": "CCCn1c(=O)c2nc(C(CC)Cc3ccccc3)[nH]c2n(CCC)c1=O (stereo not given)",
    "target_or_test_system": "Adenosine A2 receptor (Rattus norvegicus, UniProt P29276+P30543)",
    "assigned_class": "lo"
  },
  {
    "compound": "CCCn1c(=O)c2nc([C@H](CC)c3ccccc3)[nH]c2n(CCC)c1=O",
    "target_or_test_system": "Adenosine A2 receptor (Rattus norvegicus, UniProt P29276+P30543)",
    "assigned_class": "med"
  },
  {
    "compound": "CCCn1c(=O)c2nc(C(CC)c3ccccc3)[nH]c2n(CCC)c1=O (stereo not given)",
    "target_or_test_system": "Adenosine A2 receptor (Rattus norvegicus, UniProt P29276+P30543)",
    "assigned_class": "med"
  },
  {
    "compound": "CCCn1c(=O)c2nc(C3Cc4ccccc4C3)[nH]c2n(CCC)c1=O",
    "target_or_test_system": "Adenosine A2 receptor (Rattus norvegicus, UniProt P29276+P30543)",
    "assigned_class": "hi"
  }
]

* * *

Each item that follows carries a reported Ki.
- target_or_test_system: Adenosine A2 receptor (Rattus norvegicus, UniProt P29276+P30543)
- experimental_protocol: Binding affinity towards adenosine A2 receptor was determined using radioligand [3H]NECA in rat brain striatum at 25 degree C
- Assay type: tissue-based

[
  {
    "compound": "CCCC(Cc1ccccc1)c1nc2c(=O)n(CCC)c(=O)n(CCC)c2[nH]1 (stereo not drawn)",
    "Ki": "0.61 µM"
  },
  {
    "compound": "CCCn1c(=O)c2nc([C@H](C)c3ccccc3)[nH]c2n(CCC)c1=O",
    "Ki": "4.22 µM"
  },
  {
    "compound": "CCCn1c(=O)c2nc(C(CO)Cc3ccccc3)[nH]c2n(CCC)c1=O (stereo not drawn)",
    "Ki": "12.8 µM"
  }
]

* * *

- target_or_test_system: Adenosine receptor A1 (Rattus norvegicus)
- Sequence (P25099 whole entry): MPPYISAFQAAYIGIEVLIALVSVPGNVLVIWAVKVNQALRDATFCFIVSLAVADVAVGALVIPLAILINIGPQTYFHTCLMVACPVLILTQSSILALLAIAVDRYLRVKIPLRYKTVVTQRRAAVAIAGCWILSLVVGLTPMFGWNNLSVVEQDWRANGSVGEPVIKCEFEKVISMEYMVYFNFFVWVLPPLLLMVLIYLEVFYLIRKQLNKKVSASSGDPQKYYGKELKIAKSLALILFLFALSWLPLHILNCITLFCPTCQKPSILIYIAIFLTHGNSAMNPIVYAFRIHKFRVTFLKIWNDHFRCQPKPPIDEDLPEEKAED
- experimental_protocol: Binding affinity towards adenosine A1 receptor was determined using radioligand [3H]CHA in whole rat brain membranes at 25 degree C
pKi: −log10 of the molar value.
Reported values of pKi for individual entries

[
  {
    "molecule": "CCCn1c(=O)c2nc(C(CC)c3ccccc3)[nH]c2n(CCC)c1=O (configuration not stated)",
    "pKi": 7.47
  },
  {
    "molecule": "CCCn1c(=O)c2nc([C@@H](CC)c3ccccc3)[nH]c2n(CCC)c1=O",
    "pKi": 6.87
  }
]

These data points were gathered from ChEMBL document CHEMBL1126552.
